# System: HEK-293T
# assay_overview: Incucyte cell viability with HEK293T; further: unitless GR value; below 1 slowed growth and below 0 cell loss
# Type: toxicity, cell-based
# particulars: human, 0 h, 10 µM, compound concentration 10 uM, replicate number 1
The reader will find reported Growth Rate values listed item by item below.

>  <molecule>
Nc1nccc(-c2ccn3c(N)nccc23)n1

>  <Growth Rate>
-0.56

$$$$
>  <molecule>
CN(C)C(=O)Cn1cc(-c2nc([C@@](C)(c3ccc(-c4cnc(N)nc4)cc3)C3CC3)no2)cn1

>  <Growth Rate>
0.53

$$$$
>  <molecule>
O=C(O)c1ccnc(N2CC(O)(c3ccc(OCc4c(-c5c(Cl)cccc5Cl)noc4C4CC4)cc3Cl)C2)c1 [CILOFEXOR]

>  <Growth Rate>
0.8

$$$$
>  <molecule>
CC(Sc1nc2c(cnn2-c2cccc(Cl)c2)c(=O)[nH]1)C(N)=O (stereo not drawn)

>  <Growth Rate>
1

$$$$
>  <molecule>
CC1(C)C[C@@H]1C(=O)N/C(=C\CCCCSC[C@H](N)C(=O)O)C(=O)O

>  <Growth Rate>
-0.01

$$$$
>  <molecule>
C[C@@H]1CN(CC(=O)N2CC(C)(C)c3nc(CO)c(Cc4ccc(F)cc4)cc32)[C@@H](CN2CCOC[C@H]2C)CN1

>  <Growth Rate>
0.18

$$$$
>  <molecule>
CN1CCN(c2ccc(-n3cc(-c4ccncc4OCC4CCNCC4)cn3)cc2)CC1

>  <Growth Rate>
-0.6

$$$$
>  <molecule>
CCCCC(C)(O)C/C=C/[C@H]1[C@H](O)CC(=O)[C@@H]1CCCCCCC(=O)O (stereo partly drawn)

>  <Growth Rate>
-0.42

$$$$

* * *

# Test system: U2OS
# assay_overview: Incucyte cell viability with U2OS; further: unitless GR value; below 1 slowed growth and below 0 cell loss
# Assay type: toxicity, cell-based
# particulars: human, 24 h, 10 µM, compound concentration 10 uM, replicate number 1
measure: Growth Rate

>  <molecule>
COc1ccccc1C(=O)Nc1cccc(NC(=O)c2cccc(C)c2)c1

>  <observed_measurement>
0.88

$$$$
>  <molecule>
O=C(Cc1ccccc1)Nc1nnc(N2C[C@H]3C[C@@H]2CN3c2cccnn2)s1

>  <observed_measurement>
0.87

$$$$
>  <molecule>
Cn1nccc1-c1ccc(Sc2cccc(C3(C(N)=O)CCOCC3)c2)cc1

>  <observed_measurement>
0.76

$$$$
>  <molecule>
NC1=NC(=O)/C(=C2\CCNC(=O)c3[nH]c4ccccc4c32)N1

>  <observed_measurement>
0.78

$$$$
>  <molecule>
C[C@@H](CN1CC[C@@]2(C)c3cccc(O)c3C[C@@H]1C2(C)C)OCc1ccccc1.Cl

>  <observed_measurement>
0.79

$$$$
>  <molecule>
Cc1cc2nc(N3CCC(C(=O)NC4CCCC4)CC3)n(C(C)C)c2cc1C

>  <observed_measurement>
0.95

$$$$
>  <molecule>
CC(C)(C)S(=O)(=O)c1ccc2nccc(Nc3n[nH]c4ccc(F)cc34)c2c1

>  <observed_measurement>
0.06

$$$$
>  <molecule>
Cc1cc(NC(=O)c2cccc(NC(=O)/C=C/CN(C)C)c2)ccc1Nc1nccc(-c2cccnc2)n1

>  <observed_measurement>
0.29

$$$$
>  <molecule>
CCN(C)S(=O)(=O)Nc1cccc(-c2ccc3c(NC(=O)C4CC4)n[nH]c3c2)c1

>  <observed_measurement>
0.11

$$$$
>  <molecule>
CN1CCN(c2nc(N)c3ccccc3n2)CC1

>  <observed_measurement>
0.77

$$$$

The measurements presented in this section are drawn from ChEMBL document CHEMBL5303304.
